FYI, the data here is from patent US5079257A.

- assay comment: Half-wave reduction potentials / polarography (University of Utrecht)
- Format: physicochemical
- conditions: pH = 8 vs Ag/AgCl
The label yes (1) is reserved for half-wave potential E1.2, wave I strictly under -400 mV; no (0) covers values equal to or above it.

## Task Consider the compound Cn1c(/C=C/CO)c(CO)c2c1C(=O)C=C(N1CCC(O)CC1)C2=O . Is its half-wave potential E1.2, wave I strictly less than -400 mV?
## Result yes (1)

## Task Repeat for the following compound: COC1=CC(=O)c2c(c(COC(C)=O)c(/C=C/COC(C)=O)n2C)C1=O
## Result no (0)

## Task Repeat for the following compound: COC1=CC(=O)c2c(c(CO)c(/C=C/CO)n2C)C1=O
## Result no (0)

## Task Repeat for the following compound: CC1CN1C1=CC(=O)c2c(c(CO)c(/C=C/CO)n2C)C1=O (stereo not shown)
## Result no (0)

## Task Repeat for the following compound: Cn1c(/C=C/CO)c(CO)c2c1C(=O)C=C(N1CC1)C2=O
## Result no (0)

## Task Repeat for the following compound: Cn1c(/C=C/CO)c(CO)c2c1C(=O)C=C(N1CCOCC1)C2=O
## Result yes (1)

## Task Repeat for the following compound: CC(=O)OC/C=C/c1c(COC(C)=O)c2c(n1C)C(=O)C=C(NCC(O)CO)C2=O (stereo not shown)
## Result yes (1)

----------
- System: WiDr cells; colon tumour
- assay comment: In vitro panel of human tumour lines (TNO): WiDr; note: key: -: no inhibition of cell growth; +: total cell-kill
- Format: cell-based
- conditions: 1.0 μg/ml, about 72 hours
measured parameter: in vitro activity score, WiDr

Sample answers from the record:
molecule	endpoint result
COC1=CC(=O)c2c(c(COC(C)=O)c(/C=C/COC(C)=O)n2C)C1=O	-
CC(=O)OCc1c2c(n(C)c1/C=C/CO)C(=O)C=C(N1CC1)C2=O	+
Cn1c(/C=C/CO)c(CO)c2c1C(=O)C=C(N1CC1)C2=O	+
CCC1(O)CC2CN(CCc3c([nH]c4ccccc34)C(C(=O)OC)(c3cc4c(cc3OC)N(C)C3C(O)(C(=O)OC)C(OC(C)=O)C5(CC)C=CCN6CCC43C65)C2)C1 (stereo not drawn) [Vinblast., reference compound]	+
N.N.[Cl][Pt][Cl] [Cisplatin, reference compound]	-
COC1=C(C)C(=O)c2c(c(COC(C)=O)c(/C=C/COC(C)=O)n2C)C1=O	-
CC(=O)OC/C=C/c1c(COC(C)=O)c2c(n1C)C(=O)C(C)=C(N1CC1)C2=O	-
COC(=O)OC/C=C/c1c(COC(=O)OC)c2c(n1C)C(=O)C=C(OC)C2=O	-

Kindly consider the entry below.
## Task I'd like to know its in vitro activity score, WiDr. The molecule in question is CC1CN1C1=CC(=O)c2c(c(CO)c(/C=C/CO)n2C)C1=O (stereo not drawn)
## Result -

----------
- Test system: L1210 cells
- assay comment: L1210 activity in clonogenic assay (TNO Rijswijk)
- Format: cell-based
- conditions: Mus musculus, L1210, 192 h; 8 days continuous exposure, TNO Rijswijk; read-out: ID-50 L1210, clonogenic assay
measured parameter: IC50 (µg/mL)
# number only, unit µg/mL dropped from output

## Task I'd like to know its IC50. The compound in question is COC1=CC(=O)c2c(c(COC(C)=O)c(/C=C/COC(C)=O)n2C)C1=O [E.O. 1]
## Result 2.5

## Task Repeat for the following compound: CCCCn1c(/C=C/CO)c(CO)c2c1C(=O)C=C(OC)C2=O [E.O. 16]
## Result 0.9

## Task Repeat for the following compound: COC1=CC(=O)c2c(c(CO)c(/C=C/CO)n2C)C1=O [E.O. 7]
## Result 2.2

## Task Repeat for the following compound: COC(=O)OC/C=C/c1c(COC(=O)OC)c2c(n1C)C(=O)C=C(OC)C2=O [E.O. 2]
## Result 3.7

## Task Repeat for the following compound: Cn1c(/C=C/CO)c(CO)c2c1C(=O)C=C(N1CC1)C2=O [E.O. 9]
## Result 0.8
